Biological target: T1, IL10Rα/IL2Rγ receptor (human, UniProt Q13651 22-578; P31785 23-369)
T1 sequence (looked up) 1: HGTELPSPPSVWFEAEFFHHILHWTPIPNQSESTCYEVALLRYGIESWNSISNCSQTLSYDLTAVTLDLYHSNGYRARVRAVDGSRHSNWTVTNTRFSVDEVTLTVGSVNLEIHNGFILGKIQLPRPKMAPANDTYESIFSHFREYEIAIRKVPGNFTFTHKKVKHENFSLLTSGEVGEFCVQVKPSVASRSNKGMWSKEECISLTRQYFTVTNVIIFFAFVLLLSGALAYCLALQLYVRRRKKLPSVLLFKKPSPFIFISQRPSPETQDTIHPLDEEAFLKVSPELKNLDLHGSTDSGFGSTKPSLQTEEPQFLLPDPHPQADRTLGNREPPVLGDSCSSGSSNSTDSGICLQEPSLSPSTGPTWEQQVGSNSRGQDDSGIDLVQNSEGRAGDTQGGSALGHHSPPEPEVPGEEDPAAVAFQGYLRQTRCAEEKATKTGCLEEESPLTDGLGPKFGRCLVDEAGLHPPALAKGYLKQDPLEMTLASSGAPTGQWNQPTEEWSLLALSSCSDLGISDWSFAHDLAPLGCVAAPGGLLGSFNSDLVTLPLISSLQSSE
T1 sequence (looked up) 2: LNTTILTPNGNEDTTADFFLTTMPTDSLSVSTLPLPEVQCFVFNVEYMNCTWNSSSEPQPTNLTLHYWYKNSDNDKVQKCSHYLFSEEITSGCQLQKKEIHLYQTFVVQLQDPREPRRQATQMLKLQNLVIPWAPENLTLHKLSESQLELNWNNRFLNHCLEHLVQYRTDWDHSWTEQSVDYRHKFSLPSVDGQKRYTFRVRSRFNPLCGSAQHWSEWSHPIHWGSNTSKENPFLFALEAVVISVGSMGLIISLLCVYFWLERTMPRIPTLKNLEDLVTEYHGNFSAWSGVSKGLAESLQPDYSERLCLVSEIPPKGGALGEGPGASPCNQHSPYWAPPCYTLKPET
Assay: cell-based or functional assay
quantity-measured: pSTAT3 MFI, NK cells, 0.0001 nM (unstimulated 1315)
A bare number is not enough; add the unit after it.

For DR395(DR229-DR239) (bispecific antibody) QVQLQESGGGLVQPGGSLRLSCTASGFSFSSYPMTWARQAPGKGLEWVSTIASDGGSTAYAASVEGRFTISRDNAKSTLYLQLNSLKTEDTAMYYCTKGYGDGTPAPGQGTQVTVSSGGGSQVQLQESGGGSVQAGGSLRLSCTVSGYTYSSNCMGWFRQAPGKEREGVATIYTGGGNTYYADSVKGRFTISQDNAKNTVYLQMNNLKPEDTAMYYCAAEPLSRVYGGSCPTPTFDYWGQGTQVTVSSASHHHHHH , what is its reported pSTAT3 MFI, NK cells, 0.0001 nM (unstimulated 1315)?
1260 MFI

Hello, the source for this data is patent US20250163162A1, in case you need it.
